Test system: COLO 205 colon
TEST_PROTOCOL: NCI tumour cell line growth inhibition, 48 h
For each record, write down the corresponding TGI.
Express the result in µM but write the number alone.

// lookup TGI for Clc1ccc2c(NCCNc3nc(N4CCOCC4)nc4ccccc34)ccnc2c1
4.46

// lookup TGI for [O]=[Sn]([CH]1CCCCC1)[CH]1CCCCC1
0.731

// lookup TGI for S=C(NCc1ccccn1)N/N=C/c1ccccn1
0.379

// lookup TGI for COc1cc(/C=C(\C)[N+](=O)[O-])cc(OC)c1
20.1

---

For each record, write down the corresponding TGI.
System: HT29 colon
TEST_PROTOCOL: NCI tumour cell line growth inhibition, 48 h
Express the result in µM but write the number alone.

// lookup TGI for S=c1ssnc1-c1cc2ccccc2o1
29.3

// lookup TGI for CN1C2C=CC(=O)C1C1C(=O)N(c3ccccc3)C(=O)C12 (stereo not given)
23.4

---

Test system: OVCAR-8 ovarian
TEST_PROTOCOL: NCI tumour cell line growth inhibition, 48 h
For each record, write down the corresponding TGI.

Provide value of TGI for this record tested with OVCAR-8 ovarian: N[C@@H]1CCCN(c2c(Br)cnc3[nH]cc(NC(=O)C4CC4)c23)C1
> 100 µM

Provide value of TGI for this record tested with OVCAR-8 ovarian: S=C(NCc1ccccn1)N/N=C/c1ccccn1
> 100 µM

Provide value of TGI for this record tested with OVCAR-8 ovarian: O=C1Cc2cc3ccccc3nc2-c2ccccc2N1
> 100 µM

Provide value of TGI for this record tested with OVCAR-8 ovarian: CN(CCN)[C@H](CSSC[C@@H](c1ccccc1O)N(C)CCN)c1ccccc1O
47.6 µM

Provide value of TGI for this record tested with OVCAR-8 ovarian: Cc1nn2c(=O)c([N+](=O)[O-])c(/C=C/c3ccc(F)cc3)nc2s1
16 µM

Provide value of TGI for this record tested with OVCAR-8 ovarian: Nc1nc(SCc2ccccc2Cl)c2ncn(C3OC(CO)C(O)C3O)c2n1 (stereo not given)
> 100 µM

Provide value of TGI for this record tested with OVCAR-8 ovarian: CCOC(=O)c1ccc(N(CCOS(C)(=O)=O)CCOS(C)(=O)=O)cc1
> 100 µM

Provide value of TGI for this record tested with OVCAR-8 ovarian: O=c1[nH]c2cc(Cl)ccc2nc1/C(=N\Nc1ccccc1)C(O)c1ccc2c(c1)OCO2 (stereo not given)
> 100 µM

Provide value of TGI for this record tested with OVCAR-8 ovarian: O=C(/C=C/c1ccc(OCc2ccccc2)cc1)NCc1ccc(C(=O)NCCc2ccccc2)cc1
> 100 µM

Provide value of TGI for this record tested with OVCAR-8 ovarian: C=C1C(=O)OC2CC(C)C(/C=C/C(C)=O)=CCC12 (stereo not given)
> 100 µM

---

Tested on: SK-MEL-28 melanoma
TEST_PROTOCOL: NCI tumour cell line growth inhibition, 48 h; in the data active = GI50 below about 0.43 µM; inactive = the rest
Result category, one only: yes (1) = active, no (0) = inactive

For [CH3][Sn]([CH3])([CH3])[S]C(=S)N1CCOCC1 , which call appears in the assay record?
no (0)

For COc1ccc(-c2nsc3c2NC(=O)CC3c2ccsc2)cc1 (configuration not stated) , which call appears in the assay record?
no (0)

For COc1cc(C2CC(c3ccccc3)=NN2C=O)ccc1Oc1ccnc2cc(Cl)ccc12 (configuration not stated) , which call appears in the assay record?
no (0)

For [O]=[Sn]([CH]1CCCCC1)[CH]1CCCCC1 , which call appears in the assay record?
yes (1)

For Nc1ncn([C@H]2CC(O)[C@@H](CO)S2)c(=O)n1 (some centres not stated) , which call appears in the assay record?
no (0)

For COc1cc(C(=O)c2cnc(-c3c[nH]c4cccc(C)c34)[nH]2)cc(OC)c1OC , which call appears in the assay record?
no (0)

For Clc1ccc(C=Nc2ccc(-c3nc4ccccc4[nH]3)cc2)cc1 , which call appears in the assay record?
no (0)

For CCN(CC)CCOC(COc1cc(C)cc(C)c1)COc1cc(C)cc(C)c1 , which call appears in the assay record?
no (0)

For CCn1cc(C(=O)O)c(=O)c2cc(F)c(N3CCN(S(=O)(=O)c4ccc(Cl)cc4Cl)CC3)cc21 , which call appears in the assay record?
no (0)

For CC(=O)ON(OCc1ccc2ccccc2c1)C(C)=O , which call appears in the assay record?
no (0)

For Cn1c(=O)c(-c2ccccc2Cl)cc2cnc(NC3CCOCC3)nc21 , which call appears in the assay record?
no (0)

For C=CCC(N[C@@H](CO)c1ccccc1)c1ccc2ccccc2n1 (some centres not stated) , which call appears in the assay record?
no (0)

For O=C1C(Cl)=C(Nc2ccc(S(=O)(=O)c3ccc(NC4=C(Cl)C(=O)c5ccccc5C4=O)cc3)cc2)C(=O)c2ccccc21 , which call appears in the assay record?
no (0)

For CC1(C)N=C(N)N=C(N)N1c1ccc(CCCC(=O)Nc2ccc(S(=O)(=O)F)cc2)cc1 , which call appears in the assay record?
no (0)

For COc1cc2ncn(-c3cc(OCc4ccccc4C(F)(F)F)c(C(N)=O)s3)c2cc1OC , which call appears in the assay record?
no (0)

For CCN(CC)c1ccc(/C=N/NC(=O)Cc2ccc(Nc3ccnc(C(F)(F)F)c3)cc2)c(O)c1 , which call appears in the assay record?
no (0)

For CC[C@H](C)[C@H](NC(=O)[C@H]1CCCCN1C)C(=O)N(C)[C@H](CCc1nc(C(=O)N[C@@H](Cc2ccccc2)C[C@H](C)C(=O)O)cs1)C(C)C , which call appears in the assay record?
no (0)
